# EXPERIMENTAL SYSTEM: T1, HeV-G
# T1 chain: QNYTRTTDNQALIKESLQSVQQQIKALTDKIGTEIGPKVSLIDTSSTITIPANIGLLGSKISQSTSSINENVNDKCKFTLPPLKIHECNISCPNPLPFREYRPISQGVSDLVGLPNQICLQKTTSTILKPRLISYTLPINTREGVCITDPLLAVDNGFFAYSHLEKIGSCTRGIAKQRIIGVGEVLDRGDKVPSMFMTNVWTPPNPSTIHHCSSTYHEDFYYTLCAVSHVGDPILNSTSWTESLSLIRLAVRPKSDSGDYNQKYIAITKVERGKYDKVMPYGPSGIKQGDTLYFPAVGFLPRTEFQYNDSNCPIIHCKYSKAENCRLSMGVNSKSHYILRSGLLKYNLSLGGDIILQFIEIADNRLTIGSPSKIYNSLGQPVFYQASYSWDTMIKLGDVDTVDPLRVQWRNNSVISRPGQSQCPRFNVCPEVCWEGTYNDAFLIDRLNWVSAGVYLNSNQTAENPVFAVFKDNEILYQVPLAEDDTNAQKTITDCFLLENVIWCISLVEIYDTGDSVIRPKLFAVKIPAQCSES
Record form. Attribute: EC50. Fill in for each entry.
One number for each entry, in nM.

Task: Request the reported EC50 associated with HENV-58 (antibody, V domains shown) VH: QVQLVQSGAEVKKPGSSVKVSCKASGGTFSNYVISWVRQAPGQGFEWMGRIIPMIGISNYAQKFQDRVTITADKDESTTTAYMELRGLRSEDTAMYYCASSTVTEVGAWGQGTLVTVSS VL: AIQLTQSPSSLSASIGDRVTITCRASQGISSALAWFQQKPGKPPILLIYDASSLESGVPARFSGSGSGTDFTLTISSLQPEDFATYYCQQFYNHPLTFGPGTKVDIK
Output: 1.14

Further cases:
Task: Reported EC50, binder HENV-117 (antibody, V domains shown) VH: QVQLQQWGAGLLKPSETLSLTCDLSGGSFTNYYWTWIRHLPGKGLEWLGEINHSGRTNYSPSLKSRVTISVDTSKNQFSLRLSSVTAADTAVYYCARDIRKLAPKPHSYDLYYGMDVWGQGTTVTVSS VL: EIVLTQSPGTLSLSPGERATLSCRASQSVGSNYLTWYQQKPGQPPRLLIYGASNRAAGIPDRFSGSGSGTDFTLTISRLEPEDFAVYYCQQYETSSRTFGQGTKVDIR : ____
Output: 1.06
